# reported melting point; entries follow

What melting point value was documented for this compound, CC(C)C1NC(=O)CN1C(=O)CNC(=O)OCc1ccccc1 (configuration not stated) ?
137 to 139 °C

Dear colleague, I am looking for the recorded melting point of the following compound: `COc1cc2ccc(-c3ccccc3)cc2cc1SC`
124 to 125 °C

Fill in the blank: the reported melting point of `Cc1cc(C)c(-c2c(O)sc(-c3ccccc3)nc2=O)c(C)c1` is ____.
240 to 242 °C

// melting point lookup, key: COc1cncnc1N1CCN(CCCc2c[nH]c3ccc(CNS(C)(=O)=O)cc23)CC1C (configuration not stated)
210 to 214 °C

Need melting point of CC1(C)C(NN)=Nc2ccccc2C1(O)c1ccccc1 (configuration not stated) , thanks.
195 to 196 °C

Sample CCC1c2c(ncn2C)CCN1C(=S)NC(C)C (configuration not stated) — what was its melting point?
196 °C

Consider now this further compound.
Any idea what its melting point is? The compound is `NC(=O)c1ccc([N+](=O)[O-])c(CN2C(=O)c3ccccc3C2=O)c1`
100 to 124 °C

----------
Listed molecules paired with reported melting point

// known answers, use as guide
If you can, please state the reported melting point value of CCCCCCCCCCCC(CC1OC(=O)C1CCCCCC)OC(=O)C(N)CC(C)C (configuration not stated) .
27 to 30 °C

melting point lookup needed for `COCc1c(C=C(Br)Br)ncc2c1c1c(OCc3ccccc3)cccc1n2S(=O)(=O)c1ccc(C)cc1` , thanks.
149 to 152 °C

Fill blank: measured melting point of the molecule `Cc1cc(-c2cc(CN3CCN(C)CC3)c(=O)n(Cc3ccccc3Cl)n2)ccc1F` is ____.
150 to 151 °C

What melting point value was documented for this molecule, O=CNc1ccc(C2=NNC(=O)C3CC23)cc1 (configuration not stated) ?
239 to 240 °C

Using the record for CC(C)Cn1c(C(O)c2ccccc2)nc2c(N)nc3ccccc3c21 (configuration not stated) , report its melting point.
125 to 140 °C

What does the record list as melting point for `C=C(CCCC(=O)N1CCC[C@@H](C(=O)OC(C)(C)C)N1)C(=O)OCC` ?
63 to 65 °C

Further cases:
Fill in the blank: the reported melting point of O=S(=O)(c1ccccc1)n1ccc2c(OCC3CO3)cccc21 (configuration not stated) is ____.
96 °C

----------
Consider the following compounds and their measured melting point readings.

Reference set, count: 3
Reported melting point, compound `O=C(Cc1ccc(Oc2ccccc2)cc1)NCCC1=CCCCC1` : ____
74 to 75 °C

# query: melting point of entry `CON=C(Cn1ncc(-c2ccc(S(C)(=O)=O)cc2)c(-c2ccc(F)cc2)c1=O)c1ccccc1`
95 to 99 °C

# lookup: melting point of CCOC(=O)C1=C(C(F)(F)F)Nc2n[nH]cc2C1c1ccccc1F (stereo not given)
119 to 120 °C

New cases:
Quick check: melting point of `CC(C)c1n[nH]c2c(NCc3ccccc3)nc(NCCN)nc12` ?
145 to 147 °C

Could you tell me which melting point is on file for `CCCCCCCCSc1nc2cc(Cl)ccc2[nH]1` ?
66 to 67 °C

Look at this compound and give its reported melting point. `NNc1nc2cc(Cl)c(Cl)cc2nc1Cl`
< 260 °C

Please give the measured melting point for this compound: `O=[N+]([O-])c1cccc2cc(-c3nccs3)[nH]c12`
130 to 131 °C

Requested read-out: melting point. Entry: `COc1cc2c(cc1C(F)(F)F)N(C(=O)Nc1cc(-c3ccccc3)cc(-c3cccnc3)c1)CC2`
150 to 151 °C

May I ask what melting point has been recorded for `Cn1cnc([N+](=O)[O-])c1NCCN1CCC(Nc2nc3cccnc3n2Cc2ccc(F)cc2)CC1` ?
199 °C

Consider the compound shown here: CC(=O)Oc1ccccc1CC1CNC(=O)O1 (stereo not given) What is its recorded melting point?
98 to 99 °C

Which value of melting point has been reported for `Cc1cccc2ncc(C(=O)NC3CC3)c(=O)n12` in the records?
174 to 176 °C
